Test system: IL-6 mRNA
Experiment: IL-6 mRNA in LPS-activated primary murine macrophages
Assay type: cell-based, mouse
Conditions: 150 nM, +IFN, average of 3 treatments
Procedure: To investigate the role of miRNAs in the immune response, oligomeric compounds of the present invention targeting miRNAs were tested for their effects upon lipopolysaccharide (LPS)-activated primary murine macrophages. Macrophages participate in the immune response, for example, in the recognition and phagocytosis of microorganisms, including bacteria. […]
In the oligonucleotide strings, read from the 5' end, every base follows the letter of its sugar. An asterisk marks phosphorothioate; unmarked linkages are phosphodiester. Other units and linkages are bracketed, terminal groups are in braces. A string of capitals states the bases alone. e = 2'-O-(2-methoxyethyl) (MOE); [5mC] = 5-methylcytosine; d = 2'-deoxy (DNA)
Metric name: IL-6 mRNA expression, % UTC

Reference set (5 entries):
INSERT INTO measurements (substance, metric_name, reported) VALUES
  ('129690 (antisense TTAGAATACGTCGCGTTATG; sugars from the 5'' end e5 d10 e5, all phosphorothioate, methylation of C not given here) [compound 129690]', 'IL-6 mRNA expression, % UTC', '86 % UTC'),
  ('327941 (antisense eA*eA*e[5mC]*e[5mC]*e[5mC]*eA*e[5mC]*e[5mC]*eG*eA*e[5mC]*eA*eG*e[5mC]*eA*eA*eT*eG*eA*eA*eT*eG*eT*eT) [compound 327941]', 'IL-6 mRNA expression, % UTC', '197 % UTC'),
  ('289606 (antisense CCUUCCCUGAAGGUUCCUCC; all 2''-MOE, all C 5-methyl, all phosphorothioate, T or U not given here) [compound 289606]', 'IL-6 mRNA expression, % UTC', '69 % UTC'),
  ('327921 (antisense e[5mC]*eT*eT*e[5mC]*e[5mC]*eA*eG*eT*e[5mC]*eG*eG*eG*eG*eA*eT*eG*eT*eT*eT*eA*e[5mC]*eA) [compound 327921]', 'IL-6 mRNA expression, % UTC', '144 % UTC'),
  ('229927 (antisense e[5mC]*e[5mC]*eA*e[5mC]*eA*dT*dT*dG*dA*dG*dT*dT*dT*d[5mC]*dT*eT*eT*eA*eA*eG) [compound 229927]', 'IL-6 mRNA expression, % UTC', '39 % UTC');

Attention now shifts to the item below.
Exercise: Form field: reported IL-6 mRNA expression, % UTC of 342683 (antisense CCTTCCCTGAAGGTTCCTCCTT; scrambled control, further chemistry not given here) [compound 342683]
Key: 86 % UTC
